- Tested on: Fibroblast
- protocol-notes: Multiplex assay against human fibroblast
- Format: toxicity, cell-based
- experimental-parameters: 12 h, 10 µM, compound concentration 10 uM, replicate 2
Assign Population Hoechst High Intensity Objects (%) to each entry below.
One number for each entry, in %.

Here is how some molecules turned out for Population Hoechst High Intensity Objects (%).
C[C@H](NC(=O)c1c(C(F)F)nn(C)c1Oc1cccc(C(F)(F)F)c1)c1ccc(C(=O)O)cc1 : 14
Oc1c(CN2CCN(c3ccccn3)CC2)cc(Cl)c2cccnc12 : 2
O=C(NCCO)c1cccc(-c2cc(Nc3ccc(OC(F)(F)F)cc3)ncn2)c1 : 10
CC[C@H]1OC(=O)[C@H](C)[C@@H](O[C@H]2C[C@@](C)(OC)[C@@H](O)[C@H](C)O2)[C@H](C)[C@@H](O[C@@H]2O[C@H](C)C[C@H](N(C)C)[C@H]2O)[C@@]2(C)CC(C)=C(O2)[C@H](C)[C@@H](O)[C@]1(C)O : 4
CCCn1c(=O)c2[nH]c(C3CCCC3)nc2n(CCC)c1=O : 6
COc1cc(C(=O)N(CCCc2ccccc2)Cc2ccc(CC(=O)O)cc2)cc(OC)c1C : 4

Please go through the list and note Population Hoechst High Intensity Objects (%) for each molecule.
1. O=C1COc2nccc(-c3ccccc3F)c2CN1Cc1cc(C(F)(F)F)cc(C(F)(F)F)c1
2. CCCN1CCC[C@@H]2Cc3n[nH]cc3C[C@H]21.Cl [QUINPIROLE HYDROCHLORIDE]

[8, 2]
